Give measured inhibition (INH) for each item. Keep answers brief.
System: Brassica juncea
Experiment: Post-emergence herbicidal activity against Brassica juncea assessed as growth inhibition at emulsified concentrate of 150 g/ai ha after 15 days by greenhouse test
Format: functional
Answers are plain numbers, in %.

Use these answered entries as a reference point.
[
  {
    "Molecule": "CC(C)(C)OC(=O)CSc1nc2cc(-n3nc(C(C)(C)C)oc3=O)c(F)cc2s1",
    "Test target": "Brassica juncea",
    "Units symbol": "%",
    "inhibition (INH)": 0
  },
  {
    "Molecule": "CCCOC(=O)CSc1nc2cc(-n3nc(C(C)(C)C)oc3=O)c(F)cc2s1",
    "Test target": "Brassica juncea",
    "Units symbol": "%",
    "inhibition (INH)": 50
  },
  {
    "Molecule": "C#CCSc1nc2cc(-n3nc(C(C)(C)C)oc3=O)c(Br)cc2s1",
    "Test target": "Brassica juncea",
    "Units symbol": "%",
    "inhibition (INH)": 40
  },
  {
    "Molecule": "CC(C)OC(=O)CSc1nc2cc(-n3nc(C(C)(C)C)oc3=O)c(Cl)cc2s1",
    "Test target": "Brassica juncea",
    "Units symbol": "%",
    "inhibition (INH)": 0
  },
  {
    "Molecule": "CCOC(=O)Sc1nc2cc(-n3nc(C(C)(C)C)oc3=O)c(F)cc2s1",
    "Test target": "Brassica juncea",
    "Units symbol": "%",
    "inhibition (INH)": 0
  }
]

Hey, can you go through the list below and give me inhibition (INH) for every item?
1. CCOC(=O)CSc1nc2cc(-n3nc(C(C)(C)C)oc3=O)c(Br)cc2s1
2. CCOC(=O)CCSc1nc2cc(-n3nc(C(C)(C)C)oc3=O)c(Br)cc2s1
3. CCOC(=O)CSc1nc2cc(-n3nc(C(C)(C)C)oc3=O)c(Cl)cc2s1
4. CCOC(=O)CCSc1nc2cc(-n3nc(C(C)(C)C)oc3=O)c(Cl)cc2s1
5. COC(=O)CSc1nc2cc(-n3nc(C(C)(C)C)oc3=O)c(F)cc2s1

Reply:
0
0
50
70
0

Hey, can you go through the list below and give me inhibition (INH) for every item?
1. C=CCSc1nc2cc(-n3nc(C(C)(C)C)oc3=O)c(Cl)cc2s1
2. CCCOC(=O)CSc1nc2cc(-n3nc(C(C)(C)C)oc3=O)c(Br)cc2s1
3. CCOC(=O)C(C)(C)Sc1nc2cc(-n3nc(C(C)(C)C)oc3=O)c(F)cc2s1
4. CC(C)OC(=O)CSc1nc2cc(-n3nc(C(C)(C)C)oc3=O)c(F)cc2s1
5. COC(=O)Sc1nc2cc(-n3nc(C(C)(C)C)oc3=O)c(F)cc2s1
6. CC(C)(C)c1nn(-c2cc3nc(SCC=C(Cl)Cl)sc3cc2Cl)c(=O)o1
7. COC(=O)/C=C/CSc1nc2cc(-n3nc(C(C)(C)C)oc3=O)c(F)cc2s1

Reply:
[70, 0, 50, 40, 0, 70, 40]

Hey, can you go through the list below and give me inhibition (INH) for every item?
1. Cc1nn(-c2cc(NS(C)(=O)=O)c(Cl)cc2Cl)c(=O)n1C(F)F [SULFENTRAZONE]
2. CCOC(=O)C(C)Sc1nc2cc(-n3nc(C(C)(C)C)oc3=O)c(F)cc2s1 (stereo not given)
3. COC(=O)CSc1nc2cc(-n3nc(C(C)(C)C)oc3=O)c(Br)cc2s1

Reply:
1. 100
2. 75
3. 0
